Tested on: CCRF‐CEM (acute lymphoblastic leukemia)
TEST_NAME: Cytotoxic activity against CCRF-CEM
Format: cell-based
TEST_PARAMETERS: Homo sapiens, average of at least three independent experiments

MOLECULE | READING_UNIT | IC50
Cc1cc(C)n2c1C=C1C=CC(NC(=O)OCCCN3C(=O)CC(SCC(NC(=O)c4ccc5c(=O)c(O)c(-c6ccc(N7CCCCC7)c(C(N)=O)c6)[nH]c5c4)C(N)=O)C3=O)=[N+]1[B-]2(F)F (centres unmarked) [Compound 10] | µM | 5.1
Cc1cc(C)n2c1C=C1C=CC(NC(=O)OCCSSCC(NC(=O)c3ccc4c(=O)c(O)c(-c5ccc(N6CCCCC6)c([N+](=O)[O-])c5)[nH]c4c3)C(N)=O)=[N+]1[B-]2(F)F (centres unmarked) [Compound 14] | µM | 1.52
Cc1cc(C)n2c1C=C1C=CC(NC(=O)OCCCN3C(=O)CC(SCC(NC(=O)c4ccc5c(=O)c(O)c(-c6ccc(F)cc6)[nH]c5c4)C(N)=O)C3=O)=[N+]1[B-]2(F)F (centres unmarked) [Compound 7] | µM | 6.37
Cc1cc(C)n2c1C=C1C=CC(NC(=O)OCCCN3C(=O)CC(SCC(NC(=O)c4ccc5c(=O)c(O)c(-c6ccccc6)[nH]c5c4)C(N)=O)C3=O)=[N+]1[B-]2(F)F (centres unmarked) [Compound 6] | µM | 14.6
Cc1cc(C)n2c1C=C1C=CC(NC(=O)OCCSSCC(NC(=O)c3ccc4c(=O)c(O)c(-c5ccccc5)[nH]c4c3)C(N)=O)=[N+]1[B-]2(F)F (centres unmarked) [Compound 11] | µM | 19.7

---

Test system: CCRF‐CEM (acute lymphoblastic leukemia)
TEST_NAME: Cytotoxic activity against CCRF-CEM
Format: cell-based
TEST_PARAMETERS: Homo sapiens, average of at least three independent experiments
Overview of recorded IC50 for various molecules

MOLECULE | BOUND_TYPE | IC50 (µM)
Cc1cc(C)n2c1C=C1C=CC(NC(=O)OCCSSCC(NC(=O)c3ccc4c(=O)c(O)c(-c5cc(Cl)c(N)c(Cl)c5)[nH]c4c3)C(N)=O)=[N+]1[B-]2(F)F (stereo not drawn) | = | 2.59
Cc1cc(C)n2c1C=C1C=CC(NC(=O)OCCCN3C(=O)CC(SCC(NC(=O)c4ccc5c(=O)c(O)c(-c6ccc(N7CCCCC7)c([N+](=O)[O-])c6)[nH]c5c4)C(N)=O)C3=O)=[N+]1[B-]2(F)F (stereo not drawn) | > | 50
Cc1cc(C)n2c1C=C1C=CC(N)=[N+]1[B-]2(F)F | = | 4.25
